Biological target: T1, human TGFβ1 (human, UniProt P01137 279-390)
T1 construct: also called TGFβ1 homodimer
T1 sequence (P01137 279-390 limits assumed): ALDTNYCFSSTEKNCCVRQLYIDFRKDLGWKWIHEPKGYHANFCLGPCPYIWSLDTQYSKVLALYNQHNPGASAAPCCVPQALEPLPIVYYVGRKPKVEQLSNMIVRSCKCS
Assay: Biacore off-rate vs wt GC1008, 50 nM
measuredQuantity: kd var/kd wt

Record excerpt, results attached:
>>> result("P53I (antibody, V domains shown, GC1008 IgG4 variant) VH: QVQLVQSGAEVKKPGSSVKVSCKASGYTFSSNVISWVRQAPGQGLEWMGGVIIIVDIANYAQRFKGRVTITADESTSTTYMELSSLRSEDTAVYYCASTLGLVLDAMDYWGQGTLVTVSS VL: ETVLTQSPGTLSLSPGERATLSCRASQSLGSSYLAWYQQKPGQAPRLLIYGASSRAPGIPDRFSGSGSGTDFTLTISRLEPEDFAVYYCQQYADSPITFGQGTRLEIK")
4.3
>>> result("D56V (antibody, V domains shown, GC1008 IgG4 variant) VH: QVQLVQSGAEVKKPGSSVKVSCKASGYTFSSNVISWVRQAPGQGLEWMGGVIPIVVIANYAQRFKGRVTITADESTSTTYMELSSLRSEDTAVYYCASTLGLVLDAMDYWGQGTLVTVSS VL: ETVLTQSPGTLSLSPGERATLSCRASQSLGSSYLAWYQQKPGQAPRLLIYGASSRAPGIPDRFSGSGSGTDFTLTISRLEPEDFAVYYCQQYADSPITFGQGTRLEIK")
1.6
>>> result("E74C (antibody, V domains shown, GC1008 IgG4 variant) VH: QVQLVQSGAEVKKPGSSVKVSCKASGYTFSSNVISWVRQAPGQGLEWMGGVIPIVDIANYAQRFKGRVTITADCSTSTTYMELSSLRSEDTAVYYCASTLGLVLDAMDYWGQGTLVTVSS VL: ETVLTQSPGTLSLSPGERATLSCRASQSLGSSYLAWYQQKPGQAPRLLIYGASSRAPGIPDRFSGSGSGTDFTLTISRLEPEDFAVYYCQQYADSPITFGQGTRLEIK")
1.7
>>> result("S31Q (antibody, V domains shown, GC1008 IgG4 variant) VH: QVQLVQSGAEVKKPGSSVKVSCKASGYTFSQNVISWVRQAPGQGLEWMGGVIPIVDIANYAQRFKGRVTITADESTSTTYMELSSLRSEDTAVYYCASTLGLVLDAMDYWGQGTLVTVSS VL: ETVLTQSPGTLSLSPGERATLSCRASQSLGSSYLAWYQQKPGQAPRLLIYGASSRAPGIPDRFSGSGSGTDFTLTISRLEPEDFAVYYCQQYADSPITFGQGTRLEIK")
1.5
>>> result("I54P (antibody, V domains shown, GC1008 IgG4 variant) VH: QVQLVQSGAEVKKPGSSVKVSCKASGYTFSSNVISWVRQAPGQGLEWMGGVIPPVDIANYAQRFKGRVTITADESTSTTYMELSSLRSEDTAVYYCASTLGLVLDAMDYWGQGTLVTVSS VL: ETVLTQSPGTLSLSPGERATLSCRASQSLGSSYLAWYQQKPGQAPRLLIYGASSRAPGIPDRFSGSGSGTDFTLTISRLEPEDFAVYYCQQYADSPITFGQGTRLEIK")
1.5

Now let's try a different one.
Exercise: Return kd var/kd wt (reported value) for this binder: N32R (antibody, V domains shown, GC1008 IgG4 variant) VH: QVQLVQSGAEVKKPGSSVKVSCKASGYTFSSRVISWVRQAPGQGLEWMGGVIPIVDIANYAQRFKGRVTITADESTSTTYMELSSLRSEDTAVYYCASTLGLVLDAMDYWGQGTLVTVSS VL: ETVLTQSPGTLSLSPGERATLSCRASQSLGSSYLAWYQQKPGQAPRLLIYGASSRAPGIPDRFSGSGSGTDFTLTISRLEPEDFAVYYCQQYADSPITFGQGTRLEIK
Key: 2.3
